Values compiled from ChEMBL document CHEMBL1133968.

compounds and their reported MIC
# System: Staphylococcus epidermidis
# protocol_summary: Tested for minimal growth inhibitory concentration against Staphylococcus epidermidis ATCC 12228
# Format: functional

Consider the reported MIC for these compounds:
{"structure_smiles_string": "N[C@@H](CCB(O)O)C(=O)O", "test_target": "Staphylococcus epidermidis", "endpoint_result": "> 64 µg/mL"}
{"structure_smiles_string": "COC(=O)[C@@H](N)CCB(O)O", "test_target": "Staphylococcus epidermidis", "endpoint_result": "> 64 µg/mL"}

# compound CNC(=O)CNC(=O)[C@@H](N)CCB1O[C@@]2(C)CCC3C[C@@]2(O1)C3(C)C ; its MIC = > 64 µg/mL

Lab book: MIC of COC(=O)[C@@H](N)CCB1O[C@@]2(C)CCC3C[C@@]2(O1)C3(C)C noted as > 64 µg/mL
